experiment: Pharmacokinetic study, brain and plasma; format: in vivo, C57B16 mice; details: male, C57B16, mouse, ip; Brain; 25 mg/kg i.p., mice
endpointName: Cmax (ng/g)

{"chemicalStructure": "COc1ccc(CNc2c3c(nc4ccc(C#N)cc24)CCN(C(C)=O)C3)cc1Cl", "quantitativeReadout": 492}

###

experiment: Pharmacokinetic study, brain and plasma; assay type: in vivo, C57B16 mice; details: male, C57B16, mouse, ip; Plasma; 25 mg/kg i.p., mice; read-out: t½ (elimination half-life) (converted)
endpointName: half-life (h)

{"chemicalStructure": "COc1ccc(CNc2c3c(nc4ccc(C#N)cc24)CCN(C(C)=O)C3)cc1Cl", "endpointName": "half-life", "quantitativeReadout": 1.07}
